This collection of values is drawn from PubChem BioAssay AID2740.

Assign GFP fluorescence, lower = active (kMESF (background-subtracted)) to each entry below.
assay.comment: TOR pathway RPL19A-GFP modulators, concentration series – cell-based, S. cerevisiae, flow cytometry, MLPCN hits, dose response (AID 2740);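 note: background is signal of the same compound in parental non-GFP s288c yeast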
condition.notes: S. cerevisiae RPL19A-GFP strain, flow cytometry fluorescence, 3 h; at 33 µM (top of the series)
// no unit, no text: just the number

Query: Please report the recorded GFP fluorescence, lower = active (kMESF (background-subtracted)) for O=C(/C=C/Sc1ncn[nH]1)c1ccc(Cl)cc1 .
Result: 29

Query: Note, next up: CS(=O)(=O)c1sc(C#N)c2c1C(=O)CC(c1ccccc1)C2 (stereo not drawn)
Result: 38.5

Query: Note, next up: COc1ccc(/C=C2\C(=O)ON=C2c2ccccc2)cc1
Result: 24.9
